# SUBJECT OF TEST: Alpha-bungarotoxin (Bungarus multicinctus)
# EXPERIMENTAL PROTOCOL: alpha-bungarotoxin binders on microarray, profiling panel, artefact control for SMM control protein annotation, biochemical, small-molecule microarray, Alexa647 label, 635/667 nm fluorescence (AID 1117)
# CONDITION INFO: alpha-BTX-A647 binding fluorescence, higher = more signal
Use 0.7 as the dividing line for composite z-score, with the line itself on the Satisfied side and lower values as Not satisfied.

COMPOUND	SUBJECT OF TEST	CLASS
NC(=O)NCC#Cc1ccc2c(c1)[C@]1(C(=O)N2)[C@H](C(=O)O)[C@H]2C(=O)O[C@H](c3ccccc3)[C@H](c3ccccc3)N2[C@@H]1c1ccccc1OCCO	Alpha-bungarotoxin (Bungarus multicinctus)	Satisfied
CC(C)N1C(=O)[C@@]2(c3ccc([N+](=O)[O-])cc3)CC(=O)N(C3CCCCC3)[C@@H]2c2ccc(CO)cc21	Alpha-bungarotoxin (Bungarus multicinctus)	Not satisfied
C=C(/C=C/CNS(=O)(=O)c1ccc(C)cc1)[C@H](O)[C@H]1CCCN1S(=O)(=O)c1ccccc1[N+](=O)[O-]	Alpha-bungarotoxin (Bungarus multicinctus)	Not satisfied
COC(=O)[C@@]1(Cc2ccc(F)cc2)[C@H]2c3cc(C(=O)N4CCCC4)n(CCF)c3C[C@H]2CN1C(=O)c1ccccc1	Alpha-bungarotoxin (Bungarus multicinctus)	Not satisfied
C=CCC(OC(C)=O)[C@@H]1[C@@H](N(Cc2cc3ccccc3o2)C(=O)c2ccc(C)cc2)c2cc(OCCCO)ccc2N1C(=O)Cc1ccc2ccccc2c1 (some centres not stated)	Alpha-bungarotoxin (Bungarus multicinctus)	Not satisfied
CN(C)C(=O)[C@]1(CCC(=O)OC(C)(C)C)N=C(c2ccc(OCCCO)cc2)O[C@@H]1c1ccccc1	Alpha-bungarotoxin (Bungarus multicinctus)	Not satisfied
CN1C(=O)C2C=CC(C(O)C3CCCCC3)N(N3CCCCC3)C2C1=O (configuration not stated)	Alpha-bungarotoxin (Bungarus multicinctus)	Satisfied
